# testSystem: G9a (Homo sapiens, UniProt Q96KQ7)
# Construct: endogenous in cells
# Sequence (Q96KQ7 whole entry): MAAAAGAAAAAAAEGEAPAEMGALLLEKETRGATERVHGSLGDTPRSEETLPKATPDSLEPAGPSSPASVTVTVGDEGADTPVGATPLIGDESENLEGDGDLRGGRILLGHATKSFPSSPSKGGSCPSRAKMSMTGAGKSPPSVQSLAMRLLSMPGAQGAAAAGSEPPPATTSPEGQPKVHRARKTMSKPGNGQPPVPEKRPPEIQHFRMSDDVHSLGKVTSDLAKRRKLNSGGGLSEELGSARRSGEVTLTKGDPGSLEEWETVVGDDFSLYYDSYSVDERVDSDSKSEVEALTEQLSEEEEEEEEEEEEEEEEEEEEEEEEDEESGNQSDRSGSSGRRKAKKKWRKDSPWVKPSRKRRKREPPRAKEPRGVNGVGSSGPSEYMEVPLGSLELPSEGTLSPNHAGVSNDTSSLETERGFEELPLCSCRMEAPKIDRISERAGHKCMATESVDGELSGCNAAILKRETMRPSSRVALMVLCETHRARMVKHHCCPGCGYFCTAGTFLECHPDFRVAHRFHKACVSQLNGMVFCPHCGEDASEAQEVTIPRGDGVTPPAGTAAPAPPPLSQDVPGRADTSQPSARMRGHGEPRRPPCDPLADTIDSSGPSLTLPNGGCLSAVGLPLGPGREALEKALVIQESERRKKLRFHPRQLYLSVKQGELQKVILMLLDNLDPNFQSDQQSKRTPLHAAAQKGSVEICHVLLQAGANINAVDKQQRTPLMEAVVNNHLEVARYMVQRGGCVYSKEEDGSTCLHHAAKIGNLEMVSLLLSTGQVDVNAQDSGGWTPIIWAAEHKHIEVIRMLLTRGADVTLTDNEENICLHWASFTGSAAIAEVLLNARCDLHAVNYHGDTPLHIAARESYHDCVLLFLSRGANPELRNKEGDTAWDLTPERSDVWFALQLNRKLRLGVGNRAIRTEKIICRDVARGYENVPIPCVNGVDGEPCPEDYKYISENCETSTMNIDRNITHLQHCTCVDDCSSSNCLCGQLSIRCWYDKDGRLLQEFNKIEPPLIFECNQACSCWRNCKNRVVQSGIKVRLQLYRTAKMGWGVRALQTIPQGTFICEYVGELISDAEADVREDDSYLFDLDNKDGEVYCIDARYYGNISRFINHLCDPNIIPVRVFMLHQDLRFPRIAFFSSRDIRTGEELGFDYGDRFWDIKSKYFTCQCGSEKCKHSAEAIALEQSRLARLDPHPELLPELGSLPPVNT
# protocol: H3K9Me2 cell immunofluorescence in-cell Western (ICW) assay
# measurementContext: MDA-MB-231 cell line, 48 h
# Method: After the incubation, the media was removed and 100 μl fixation and permeabilization solution (2% formaldehyde in PBS) for fixation was added for 30 min. […] The plates were read on an Odyssey CLX (LiCor) scanner at both 800 nm (H3K9me2 signal) and 700 nm (cell tag 700 stain signal) channels. IC50s were calculated using GraphPad Prizm statistical package with sigmoidal variable slope dose response curve fit.
quantity: IC50

The examples below pair each entry with its known result.
COc1cc2nc(NCCNC(=O)CCCCCC(=O)NO)nc(NC3CCN(C)CC3)c2cc1OC [Compound 5]; > 100 µM
COc1cc2nc(NCCNC(=O)CCCCC(=O)NO)nc(NC3CCN(C(C)C)CC3)c2cc1OC [Compound 6a]; > 100 µM

CN1CCCN(c2nc(NC3CCN(Cc4ccccc4)CC3)c3ccc(OCCCCCCC(=O)NO)cc3n2)CC1 [Compound 30] has a reported IC50 of > 100 µM
